- System: ABHD11
- assaySummary: LYPLA1 inhibition and serine hydrolase selectivity, late-stage follow-up, fluorescence, gel-based ABPP, mouse proteome (AID 504520);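 note: soluble proteome from BW5147 murine T cells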
- conditionSet: FP-rhodamine fluorescence, at 0.75 µM, stronger effect = higher value
experimentalEndpoint: inhibition (%)

>>> print(df.to_string())
                                   compound  observed
0  O=C(N(c1ccccc1)c1ccccc1)n1ncc(-c2cc(F)cc(F)c2)n1        50
1  O=C(N(c1ccccc1)c1ccccc1)n1ncc(-c2ccc(-c3ccccc3)cc2)n1         0
2  O=C(N1CCc2ccccc2C1)n1ncc(C(O)(c2ccccc2)c2ccccc2)n1       100
3  O=C(N(c1ccccc1)c1ccccc1)n1ncc(-c2ccc(Oc3ccccc3)cc2)n1         0
4  O=C(N1CCCCC1)n1ncc(C(O)(c2ccccc2)c2ccccc2)n1       100

a = O=C(N(c1ccccc1)c1ccccc1)n1ncc(C(O)(c2ccccc2)c2ccccc2)n1
b = CC(C)CC(O)(CC(C)C)c1cnn(C(=O)N(c2ccccc2)c2ccccc2)n1
c = COC1CCN(C(=O)n2ncc(C(O)(c3ccccc3)c3ccccc3)n2)CC1
d = COc1ccc2cc(-c3cnn(C(=O)N(c4ccccc4)c4ccccc4)n3)ccc2c1
## Task Rank order required: inhibition, descending. Reply with the labels, ordered as the question asks.
## Result c, b, d, a
(c: 100%, b: 50%, d: 25%, a: 0%)
